Values were extracted from ChEMBL document CHEMBL5360544.

- Tested on: MDA-MB-231
- Protocol: Antiproliferative activity against human MDA-MB-231 cells incubated for 48 hrs by CCK-8 assay
- Format: functional, cell-based
- Settings: MDA-MB-231, 48 h
Parameter: IC50 (µM)

COc1cc(-c2ccnn2-c2ccc(I)cc2)cc(OC)c1OC :: 8.21
COc1ccc(/C=C\c2cc(OC)c(OC)c(OC)c2)cc1O :: 2.13
COCc1ccc(-c2cnc(N)nc2-c2cc(OC)c(OC)c(OC)c2)cc1 :: 14
COc1cc(-c2nc(N)ncc2-c2cc3ccccc3s2)cc(OC)c1OC :: 14.5
COc1cc(-c2ccnn2-c2ccc(N)cc2)cc(OC)c1OC :: 11.4

1: CCn1c2ccccc2c2cc(-c3cnc(N)nc3-c3cc(OC)c(OC)c(OC)c3)ccc21
2: COc1ccc(-c2cnc(N)nc2-c2cc(OC)c(OC)c(OC)c2)cc1F
3: COc1cc(-c2ccnn2-c2ccc(C)cc2)cc(OC)c1OC
Place the items in sequence of falling IC50. Lab note: final answer is the ordered label list.
2, 3, 1
(2: 10.6 µM, 3: 7.29 µM, 1: 4.69 µM)

###

- System: MDA-MB-231
- Protocol: Antiproliferative activity against human MDA-MB-231 cells incubated for 48 hrs by CCK-8 assay
- Type: functional, cell-based
- Settings: MDA-MB-231, 48 h
Parameter: IC50 (µM)

COc1ccc(-c2cnc(N)nc2-c2cc(OC)c(OC)c(OC)c2)cc1 :: 22.4

1: COc1cc(-c2nc(N)ncc2-c2ccc3cc[nH]c3c2)cc(OC)c1OC
2: COc1ccc(-c2cnc(N)nc2-c2cc(OC)c(OC)c(OC)c2)cc1N
Quick one: lower IC50, 1 or 2 ? // caller expects the label of the chosen entry
2
(2: 11.6 µM, 1: 27.1 µM)

###

Measured half-life, listed per entry for reference.
- Protocol: Metabolic stability in human liver microsomes assessed as half life preincubated for 2 hrs followed by NADPH regenerating system addition and measured upto 4 hrs by LC-MS method
- Type: ADME, Microsome
- Settings: time < 6 hrs
Answer format: numeric, min implied, no suffix.

COc1cc(-c2ccnn2-c2ccc(N)cc2)cc(OC)c1OC :: 106

Pending compound:
get_value(item= COc1ccc(/C=C\c2cc(OC)c(OC)c(OC)c2)cc1O , readout=half-life) returns 9.5

###

- Test system: SW480
- Protocol: Antiproliferative activity against human SW480 cells incubated for 48 hrs by CCK-8 assay
- Type: functional, cell-based
- Settings: SW480, 48 h
Parameter: IC50 (µM)

COc1cc(-c2nc(N)ncc2-c2cc3ccccc3s2)cc(OC)c1OC :: 5.99
COc1ccc(-c2cnc(N)nc2-c2cc(OC)c(OC)c(OC)c2)cc1N :: 52.2
COc1cc(-c2nc(N)ncc2-c2ccc(C)cc2)cc(OC)c1OC :: 39.7
COc1cc(-c2nc(N)ncc2-c2ccc3cc[nH]c3c2)cc(OC)c1OC :: 36.8
COc1cc(-c2ccnn2-c2ccc(I)cc2)cc(OC)c1OC :: 28.2
COc1cc(-c2ccnn2-c2ccc(C)cc2)cc(OC)c1OC :: 37.9

A: COc1cc(-c2nc(N)ncc2-c2ccc3c(ccn3C)c2)cc(OC)c1OC
B: COc1cc(-c2ccnn2-c2ccc(N)cc2)cc(OC)c1OC
C: COc1ccc(-c2cnc(N)nc2-c2cc(OC)c(OC)c(OC)c2)cc1F
Please list these in order of increasing IC50. Thank you! Lab note: final answer is the ordered label list.
A, B, C
(A: 5.05 µM, B: 37.5 µM, C: 58.4 µM)

###

- Tested on: MDA-MB-231
- Protocol: Antiproliferative activity against human MDA-MB-231 cells incubated for 48 hrs by CCK-8 assay
- Format: functional, cell-based
- Settings: MDA-MB-231, 48 h
Measured IC50, listed per entry for reference.

Here are 2 compounds together with their reported answers.
COc1cc(-c2nc(N)ncc2-c2ccc(C)c(C)c2)cc(OC)c1OC :: > 64 µM
COc1cc(-c2nc(N)ncc2-c2ccc3c(ccn3C)c2)cc(OC)c1OC :: > 64 µM

get_value(item= COc1cc(-c2nc(N)ncc2-c2ccc(SC)cc2)cc(OC)c1OC , readout=IC50) returns > 64 µM

###

- System: SW480
- Protocol: Antiproliferative activity against human SW480 cells incubated for 48 hrs by CCK-8 assay
- Assay type: functional, cell-based
- Settings: SW480, 48 h
pIC50: −log10 of the molar value.
Parameter: pIC50

get_value(item= COc1cc(-c2nc(N)ncc2-c2ccc(C)c(C)c2)cc(OC)c1OC , readout=pIC50) returns < 4.19

###

- System: SW480
- Protocol: Antiproliferative activity against human SW480 cells incubated for 48 hrs by CCK-8 assay
- Format: functional, cell-based
- Settings: SW480, 48 h
Parameter: IC50

Here are 5 compounds together with their reported answers.
COc1cc(-c2nc(N)ncc2-c2ccc(SC)cc2)cc(OC)c1OC :: > 64 µM
COCc1ccc(-c2cnc(N)nc2-c2cc(OC)c(OC)c(OC)c2)cc1 :: > 64 µM
COc1ccc(-c2cnc(NC(C)=O)nc2-c2cc(OC)c(OC)c(OC)c2)cc1N :: > 64 µM
CCn1c2ccccc2c2cc(-c3cnc(N)nc3-c3cc(OC)c(OC)c(OC)c3)ccc21 :: 4.32 µM
COc1ccc(-c2cnc(N)nc2-c2cc(OC)c(OC)c(OC)c2)cc1 :: > 64 µM

Pending compound:
get_value(item= COc1ccc(/C=C\c2cc(OC)c(OC)c(OC)c2)cc1O , readout=IC50) returns 40 µM
